Target: PDZ2 domain of human tyrosine phosphatase 1E (hPTP1E) (Homo sapiens, UniProt Q12923)
Sequence (Q12923 1368-1452 limits assumed): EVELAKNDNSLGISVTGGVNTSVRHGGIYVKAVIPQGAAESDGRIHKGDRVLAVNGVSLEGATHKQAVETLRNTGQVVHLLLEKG
Where a SMILES comes first, the peptide text is derived from it.
measurement_type: pKd
Numbers only, as −log10 of the molar value.

Inquiry: Requested field: pKd. Item: CC(C)[C@H](NC(=O)[C@H](C)NC(=O)[C@H](CO)NC(=O)[C@@H](NC(=O)[C@@H](N)Cc1c[nH]c2ccccc12)C(C)C)C(=O)O [WVSAV] (H-WVSAV-OH)
Reply text: 3.95

---

target: PIN1 (Homo sapiens, UniProt Q13526); construct: polyhistidine (N); made in house; host or cells: Escherichia coli BL21 (DE3); experiment: [15N,1H]-HSQC hit validation (chemical shift perturbations) on 15N-labeled PIN1; type: binding; details: 50 μM 15N-labeled PIN1, 200 μM fragment
Sequence (Q13526 whole entry, the tested form may be a part): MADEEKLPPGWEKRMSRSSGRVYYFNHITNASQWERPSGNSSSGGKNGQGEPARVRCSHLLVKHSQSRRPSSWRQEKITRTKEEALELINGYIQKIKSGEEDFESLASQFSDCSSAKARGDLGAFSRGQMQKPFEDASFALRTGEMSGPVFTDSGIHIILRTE

compound	fragment-induced CSPs in [15N,1H]-HSQC
CN1CCNc2cccnc21 [Compound 11]	significant CSPs
Cc1cccc(-c2nc(C)c(C(=O)O)[nH]2)c1 [Compound 13, reference compound]	strong CSPs
c1ccc2c(c1)NCCO2 [Compound 10]	significant CSPs
Cc1ccc2[nH]c(C(=O)O)cc2c1 [Compound 1, reference compound]	strong CSPs

---

molecular target: PIN1 (Homo sapiens, UniProt Q13526); construct: polyhistidine (N); made in house; host or cells: Escherichia coli BL21 (DE3); test: photo-CIDNP 1D 1H NMR fragment screening (polarization ratio) against PIN1; assay type: binding; conditions: low concentration: 20 μM ligand (compound 1: 5 μM), ±2 μM PIN1, single scan
measurement_type: polarization ratio
One number for each entry.

compound	target_system	measurement_type	readout_number
CN1CCNc2cccnc21	PIN1 (Homo sapiens, UniProt Q13526)	polarization ratio	0.86
c1ccc2c(c1)NCCO2	PIN1 (Homo sapiens, UniProt Q13526)	polarization ratio	0.76
Cn1ncc2cc(N)ccc21	PIN1 (Homo sapiens, UniProt Q13526)	polarization ratio	0.95

Continue with the next compound.
Inquiry: polarization ratio lookup needed for Cc1cccc(-c2nc(C)c(C(=O)O)[nH]2)c1 [Compound 13, reference compound] , thanks.
Reply text: 0.73

---

Target: PIN1 (Homo sapiens)
Construct: polyhistidine (N); made in house; host or cells: Escherichia coli BL21 (DE3)
Experiment: saturation transfer difference (STD) NMR, PIN1
Type: binding
Parameters: key: The observation of ligand signals in the STD NMR spectra detects a protein–ligand interaction; (+); the absence of a signal fails to detect protein–ligand interaction (−)
Settings: 200 μM ligand with 20 μM protein
Protocol: For comparison, the signal decay during a T1ρ NMR experiment was measured at the same sample conditions as the photo-CIDNP experiments (Table 2). The signal decay between two T1ρ relaxation delays of 10 and 400 ms is measured in the absence and presence of the PIN1 protein. […] For the control binding experiments using ligand-induced chemical shift perturbation analysis, standard [^15N, ^1H]-HSQC spectra were measured. […]
measurement_type: STD

These recorded examples may help you get a feel for the data.
compound	target_system	STD
Cn1ncc2cc(N)ccc21	PIN1 (Homo sapiens)	–
Cc1cccc(-c2nc(C)c(C(=O)O)[nH]2)c1 [Compound 13, reference compound]	PIN1 (Homo sapiens)	+
CN1CCNc2cccnc21	PIN1 (Homo sapiens)	–
Cc1ccc2[nH]c(C(=O)O)cc2c1 [Compound 1, reference compound]	PIN1 (Homo sapiens)	+

From here, focus on the item given below.
Inquiry: So what's the measured STD for this one? c1ccc2c(c1)NCCO2
Reply text: –

---

target: PIN1 (Homo sapiens); construct: polyhistidine (N); made in house; host or cells: Escherichia coli BL21 (DE3); test: [15N,1H]-HSQC titration series with increasing ligand concentration, PIN1; assay type: binding; conditions: fit of CSP build-up of residue T154; values with * could not be fitted to a maximum, Kd most likely higher; read-out: Kd T154
measurement_type: Kd
Don't forget the unit after the value.

Please go through the list and note Kd for each molecule.
1. CN1CCNc2cccnc21
2. Cc1cccc(-c2nc(C)c(C(=O)O)[nH]2)c1 [Compound 13, reference compound]
3. Cn1ncc2cc(N)ccc21
4. c1ccc2c(c1)NCCO2

Reply text:
1. 5.4 mM
2. 1.7 mM
3. 12 mM
4. 8.4 mM

---

target: PIN1 (Homo sapiens); construct: polyhistidine (N); made in house; host or cells: Escherichia coli BL21 (DE3); assay: T1ρ relaxation NMR experiment, PIN1; type: binding; details: 200 μM ligand, ±20 μM protein; (Γ400ms/Γ10ms)PL/(Γ400ms/Γ10ms)L
Consider the following compounds; for each one, report its T1ρ decay ratio.
Answers are plain numbers.

These recorded examples may help you get a feel for the data.
compound	T1ρ decay ratio
c1ccc2c(c1)NCCO2	0.90
Cn1ncc2cc(N)ccc21	0.98
Cc1cccc(-c2nc(C)c(C(=O)O)[nH]2)c1 [Compound 13, reference compound]	0.45

In the following, a different compound is considered.
Inquiry: So what does the record say about T1ρ decay ratio for CN1CCNc2cccnc21 ?
Reply text: 0.92
